test: in vitro; conditions: human, hela cells, % viability
Recorded viability at 28.5 h, 10 µM, one value per entry.
Report the value in % with no unit label.

compound=Cc1ccc(C(=O)N2CC(=O)N(CCO)C2)cc1 recorded_metric="viability at 28.5 h, 10 µM" value_measured=110
compound=CCOC(=O)CC(=O)CSc1nc(C)cc(-c2cccnc2)c1C#N recorded_metric="viability at 28.5 h, 10 µM" value_measured=94
compound=Cc1cc(C)cc(NC(=O)c2ccccc2NS(=O)(=O)c2cccc(Cl)c2)c1 recorded_metric="viability at 28.5 h, 10 µM" value_measured=94.9
compound="CCNC(=O)N[C@H]1CC[C@]2(C)CCC([C@H](C)C(=O)N3CCCCC3)[C@H](O)[C@H]2[C@@H]1C (stereo partly drawn)" recorded_metric="viability at 28.5 h, 10 µM" value_measured=84.7
compound=COc1ncnc(C)c1-c1cc(C)c(OC)c(C)c1 recorded_metric="viability at 28.5 h, 10 µM" value_measured=100

QUERY: Item `CCc1nnc(CN(C)Cc2c(C)nn(C)c2Cl)o1` has what recorded viability at 28.5 h, 10 µM?
RESULT: 90.5

QUERY: Requested field: viability at 28.5 h, 10 µM. Item: `COc1ccc(-c2ccccc2CC2(C(=O)NCc3cccs3)CCOCC2)cc1`
RESULT: 92.3

QUERY: Value lookup for viability at 28.5 h, 10 µM; key = `COc1cc(C(=O)Nc2ccc(-c3nc4ncccc4o3)cc2)ccc1OCc1ccc(Cl)cc1`
RESULT: 92.7

QUERY: Item `CCOC(=O)c1cccc(NS(=O)(=O)c2cccc3cccnc23)c1` has what recorded viability at 28.5 h, 10 µM?
RESULT: 57.2
